- System: P388 leukemia ip, CD2F1 mice, survival T/C
- EXPERIMENTAL_DETAILS: NCI In Vivo Anticancer Drug Screen. Data for tumor model P388 Leukemia (intraperitoneal) in CD2F1 (CDF1) mice
- CONDITION_SET: endpoint: median survival time; dose: 240.0 mg/kg/injection; schedule: Q01DX005 (ip); vehicle: saline; higher = longer survival
Toxic doses and inconclusive results are not listed.
Listing: T/C of selected molecules

{"columns": ["MOLECULE", "T/C"],
 "data": [
  ["Nc1nc(-c2cc(-c3ccco3)nc(N)n2)cc(-c2ccco2)n1", "101 % of control"],
  ["CCN(CC)C(=O)c1ccncc1C(=O)c1ccncc1", "100 % of control"],
  ["Nc1nnc2nc(C(C(=O)c3cccc(O)c3)c3nc4nnc(N)n4[nH]c3=O)c(=O)[nH]n12", "97 % of control"],
  ["COc1cc(C(=O)CC2=NC3NN(c4ccccc4)C(=O)C3=C2CC(=O)c2ccc(O)c(OC)c2)ccc1O (stereo unspecified)", "98 % of control"],
  ["COc1cc(CN2CCN(CCO)CC2)c(O)c(CN2CCN(CCO)CC2)c1", "102 % of control"],
  ["CN(C)C(=O)NO", "97 % of control"]
]}

---

- Tested on: P388 leukemia ip, CD2F1 mice, survival T/C
- EXPERIMENTAL_DETAILS: NCI In Vivo Anticancer Drug Screen. Data for tumor model P388 Leukemia (intraperitoneal) in CD2F1 (CDF1) mice
- CONDITION_SET: endpoint: median survival time; dose: 400.0 mg/kg/injection; schedule: Q01DX009 (ip); vehicle: other; higher = longer survival
Toxic doses and inconclusive results are not listed.
Listing: T/C of selected molecules

{"columns": ["MOLECULE", "T/C"],
 "data": [
  ["Nc1nc(N)c2c(n1)=NC(c1cccc3ccccc13)N=2 (centres undefined)", "106 % of control"],
  ["CSCC(CO)NC(=O)/C=C/c1c(C)[nH]c(=O)[nH]c1=O (centres undefined)", "88 % of control"],
  ["COc1ccc(Br)c(C(=O)O)c1OS(=O)(=O)c1ccc(C)cc1", "108 % of control"],
  ["CCOC(=O)C1=C(C)NC(C)=C(C(=O)OCC)C1c1ccncc1", "95 % of control"]
]}

---

- Test system: P388 leukemia ip, CD2F1 mice, survival T/C
- EXPERIMENTAL_DETAILS: NCI In Vivo Anticancer Drug Screen. Data for tumor model P388 Leukemia (intraperitoneal) in CD2F1 (CDF1) mice
- CONDITION_SET: endpoint: median survival time; dose: 12.5 mg/kg/injection; schedule: Q01DX005 (ip); vehicle: Klucel (hydroxypropylcellulose) (HPC); higher = longer survival
Inconclusive results and toxic doses are left out.

{"columns": ["COMPOUND", "T/C"],
 "data": [
  ["Cc1cc2nc3cc(C)c(N)cc3[n+](-c3ccccc3)c2cc1N", "116 % of control"],
  ["COc1ccc(/C=N/Nc2cc(C)nc3ccc(F)cc23)c2ccccc12", "97 % of control"],
  ["CCOC(=O)CC(O)(c1ccc2c(c1)OCO2)c1cc(OC)c(OC)c(OC)c1 (stereo not given)", "100 % of control"],
  ["C=C(Cl)C(=NC(C)(C)C)Nc1ccccc1C", "117 % of control"],
  ["COC(=O)c1ccc(N=NN(C)CN=[N+]=[N-])cc1", "106 % of control"],
  ["COc1cc2cnc3c4cc(OC)c(OC)cc4c(O)cc3c2cc1OC", "98 % of control"],
  ["Cc1c(C#N)c(N)nc2c(C(N)=O)nsc12", "102 % of control"],
  ["NC(=O)NC(=O)/C=C/C(=O)OCCCl", "89 % of control"],
  ["Cc1cc(N/N=C/c2ccc([N+](=O)[O-])cc2)c2cc3c(cc2n1)OCO3", "100 % of control"],
  ["c1cc(CSC2=NCCN2)c2cccc(CSC3=NCCN3)c2c1", "103 % of control"]
]}
